Data credit: the Deep4Chem optical property database

measurementDescription: solvent given as SMILES
studyConditions: in Cc1ccccc1

[
  {
    "itemSmiles": "COc1ccc2c3c(c4ccc(C(C)(C)C)cc4c2c1)=C(c1cc(OC)c(OC)c(OC)c1)C1=Nc2c(-c4cc(OC)c(OC)c(OC)c4)c4c5ccc(C(C)(C)C)cc5c5cc(OC)ccc5c4n2[B-](F)(F)[N+]=31",
    "absorption maximum, nm": 797
  },
  {
    "itemSmiles": "CC(C)(C)c1ccc(-c2c3ccccc3c3n2[B-](F)(F)[N+]2=Cc4c5ccccc5c(-c5ccc(C(C)(C)C)cc5)n4[B-](F)(F)[N+]2=C3)cc1",
    "absorption maximum, nm": 573
  },
  {
    "itemSmiles": "CCc1c(C)c2n(c1C)[B-](F)(F)[N+]1=C(c3ccc[nH]3)c3ccccc3C1=C2",
    "absorption maximum, nm": 620
  }
]

----------
measurementDescription: solvent given as SMILES
studyConditions: in CO

[
  {
    "itemSmiles": "C(#Cc1ccc(-n2c3ccccc3c3ccccc32)cc1)c1ccccc1",
    "absorption maximum": "322 nm"
  },
  {
    "itemSmiles": "Cc1cc2ccc(-c3cccc4cccc(-c5ccc6cc(C)c(=O)oc6c5)c34)cc2oc1=O",
    "absorption maximum": "328 nm"
  },
  {
    "itemSmiles": "CC1=[N+]2C(=c3c4c5ccccc5cc5cccc(c6cc(C)n(c36)[B-]2(F)F)c54)C=C1",
    "absorption maximum": "583 nm"
  },
  {
    "itemSmiles": "Cc1cc2nc3cc(C)c(N)cc3[n+](-c3ccccc3)c2cc1N",
    "absorption maximum": "529 nm"
  },
  {
    "itemSmiles": "Cc1cc(=O)c2ccc(N)cc2o1",
    "absorption maximum": "327 nm"
  },
  {
    "itemSmiles": "COc1ccc(O)c(-c2[nH]c(=O)n3c2-c2ccccc2C3=O)c1",
    "absorption maximum": "401 nm"
  },
  {
    "itemSmiles": "N#Cc1c(-n2nnc3ccc(Cl)cc32)n([C@H]2C[C@H](O)[C@@H](CO)O2)c2ncnc(N)c12",
    "absorption maximum": "276 nm"
  },
  {
    "itemSmiles": "CCC1=C(C)C(=O)n2c1cc1c(CCC(=O)O)c(C)c(C)n1c2=O",
    "absorption maximum": "421 nm"
  },
  {
    "itemSmiles": "COc1ccc2c(CC(=O)NN)coc2c1",
    "absorption maximum": "290 nm"
  },
  {
    "itemSmiles": "C#CCOc1ccc(/C=C/C2=[N+]3C(=C(c4ccccc4)c4c(C)cc(C)n4[B-]3(F)F)C(C)=C2)cc1",
    "absorption maximum": "563 nm"
  }
]

----------
measurementDescription: solvent given as SMILES
studyConditions: in CC#N
measuredProperty: absorption maximum (nm)

[
  {
    "itemSmiles": "CC(C)(C)c1ccc(-c2c3ccccc3c3n2[B-](F)(F)[N+]2=Cc4c5ccccc5c(-c5ccc(C(C)(C)C)cc5)n4[B-](F)(F)[N+]2=C3)cc1",
    "measuredProperty": "absorption maximum",
    "measureUnit": "nm",
    "measured": 557
  },
  {
    "itemSmiles": "Cc1cccc2nc3[nH]c(=O)[nH]c(=O)c3nc12",
    "measuredProperty": "absorption maximum",
    "measureUnit": "nm",
    "measured": 380
  },
  {
    "itemSmiles": "C(=C\\c1c2ccccc2cc2ccccc12)/c1ccc2ccccc2c1",
    "measuredProperty": "absorption maximum",
    "measureUnit": "nm",
    "measured": 387
  },
  {
    "itemSmiles": "O=C1NC(=O)/C(=C\\c2ccccc2O)S1",
    "measuredProperty": "absorption maximum",
    "measureUnit": "nm",
    "measured": 348
  },
  {
    "itemSmiles": "CCn1c2ccccc2c2cc(/C=C/c3cc(/C=C/c4ccc5c(c4)c4ccccc4n5CC)[n+](CCCS(=O)(=O)[O-])c(/C=C/c4ccc5c(c4)c4ccccc4n5CC)c3)ccc21",
    "measuredProperty": "absorption maximum",
    "measureUnit": "nm",
    "measured": 458
  },
  {
    "itemSmiles": "Oc1ccc2ncccc2c1",
    "measuredProperty": "absorption maximum",
    "measureUnit": "nm",
    "measured": 331
  },
  {
    "itemSmiles": "COc1ccc(/C=C/C(=O)c2ccccc2O)cc1OC",
    "measuredProperty": "absorption maximum",
    "measureUnit": "nm",
    "measured": 352
  },
  {
    "itemSmiles": "Cc1cc(=O)c2ccc(N)cc2o1",
    "measuredProperty": "absorption maximum",
    "measureUnit": "nm",
    "measured": 315
  },
  {
    "itemSmiles": "C#CCn1c2ccccc2c2cc(/C=C/C3=[N+]4C(=C(c5ccc(I)cc5)c5c(C)c(Cl)c(/C=C/c6ccc7c(c6)c6ccccc6n7CC#C)n5[B-]4(F)F)C(C)=C3Cl)ccc21",
    "measuredProperty": "absorption maximum",
    "measureUnit": "nm",
    "measured": 694
  }
]

----------
# absorption maximum per record follows
measurementDescription: solvent given as SMILES
studyConditions: in CC#N
measuredProperty: absorption maximum (nm)

[
  {
    "compound": "CN(C)c1ccc(/C=C/c2nc3ccc(Br)cc3nc2-c2ccccc2)cc1",
    "measuredProperty": "absorption maximum",
    "measureUnit": "nm",
    "measured": 448
  },
  {
    "compound": "CC(=O)Nc1cccc2c1C#Cc1c(cccc1C(=O)N(C)C)OCCCO2",
    "measuredProperty": "absorption maximum",
    "measureUnit": "nm",
    "measured": 315
  },
  {
    "compound": "Cc1cc(O)c(-c2[nH]c(=O)n3c2-c2ccccc2C3=O)cc1Cl",
    "measuredProperty": "absorption maximum",
    "measureUnit": "nm",
    "measured": 393
  },
  {
    "compound": "CC1=C2C3=C(CCc4ccccc43)C(C)=[N+]2[B-](F)(F)n2c(C)c3c(c21)-c1ccccc1CC3",
    "measuredProperty": "absorption maximum",
    "measureUnit": "nm",
    "measured": 559
  },
  {
    "compound": "O=P1(c2ccccc2)C(c2cc(C(F)(F)F)cc(C(F)(F)F)c2)=Cc2c3ccc4cccc5ccc(c6cc(-c7ccccc7)n1c26)c3c45 (stereo not given)",
    "measuredProperty": "absorption maximum",
    "measureUnit": "nm",
    "measured": 445
  }
]

----------
absorption maximum by entry:
measurementDescription: solvent given as SMILES
studyConditions: in CCCCCCCCCCCCCCCC

[
  {
    "compound": "CN(C)c1ccc(C#Cc2ccc(C=O)cc2)cc1",
    "measureUnit": "nm",
    "absorption maximum": 383
  },
  {
    "compound": "COC(=O)c1ccc(C#Cc2ccc(N(C)C)cc2)cc1",
    "measureUnit": "nm",
    "absorption maximum": 365.5
  },
  {
    "compound": "O=C1c2ccccc2NC(c2ccccc2)N1Cc1ccccc1 (centres undefined)",
    "measureUnit": "nm",
    "absorption maximum": 325
  },
  {
    "compound": "COC(=O)c1ccc(C#Cc2ccccc2)cc1",
    "measureUnit": "nm",
    "absorption maximum": 317.3
  }
]

----------
measurementDescription: solvent given as SMILES
studyConditions: in Cc1ccccc1

[
  {
    "itemSmiles": "c1ccc(C2(c3ccccc3)c3ccccc3N(c3ccc(-c4nc([C@]56CC7CC(C[C@@H](C7)C5)C6)nc([C@]56C[C@H]7C[C@@H](C[C@H](C7)C5)C6)n4)cc3)c3ccccc32)cc1",
    "absorption maximum": "367.02 nm"
  },
  {
    "itemSmiles": "COc1ccc(C2=[N+]3C(=Nc4c(-c5cc(OC)c(OC)c(OC)c5)c(-c5ccc(C(C)(C)C)cc5)c(-c5ccc(OC)cc5)n4[B-]3(F)F)C(c3cc(OC)c(OC)c(OC)c3)=C2c2ccc(C(C)(C)C)cc2)cc1",
    "absorption maximum": "694 nm"
  },
  {
    "itemSmiles": "COc1ccc2c(c1)c1cc(OC)ccc1n2-c1ccc2c(c1)-c1cc(-n3c4ccc(OC)cc4c4cc(OC)ccc43)ccc1P2(=O)c1ccccc1",
    "absorption maximum": "369 nm"
  },
  {
    "itemSmiles": "N#Cc1c(-n2c3ccccc3c3ccccc32)cc(N2c3ccccc3C(c3ccccc3)(c3ccccc3)c3ccccc32)cc1-n1c2ccccc2c2ccccc21",
    "absorption maximum": "368 nm"
  },
  {
    "itemSmiles": "CCn1c2ccccc2c2cc(/C=C/c3cc(/C=C/c4ccc5c(c4)c4ccccc4n5CC)[n+](CCCS(=O)(=O)[O-])c(/C=C/c4ccc5c(c4)c4ccccc4n5CC)c3)ccc21",
    "absorption maximum": "466 nm"
  }
]
